Reported combination Emax values are given for each entry in this list.
System: SNU-398 (Hepatocellular Carcinoma)
Experiment: combination Emax (second highest fraction inhibited in the dose matrix, 72 h); higher = more inhibition; extreme values may be limits of the assay
Field format: numeric only.

Examples with answers:
Compound	Study target	combination Emax
Cc1c2c(nn1C)CSCc1cc(n(C)n1)CSc1cc(c3ccccc3c1)OCCCc1c(C(=O)O)n(C)c3c-2c(Cl)ccc13 [AZD5991] + Cc1cc2ncnn2cc1Nc1ncc2c(n1)n(C1CCOCC1)c(=O)n2C [AZD7648] (first compound max 1 µM, 7x7, partner max 10 µM)	SNU-398 (Hepatocellular Carcinoma)	1
NC1(C(=O)N[C@@H](CCO)c2ccc(Cl)cc2)CCN(c2ncnc3[nH]ccc23)CC1 [Capivasertib] + CC(=O)c1c(C)c2cnc(Nc3ccc(N4CCNCC4)cn3)nc2n(C2CCCC2)c1=O [Palbociclib] (first compound max 10 µM, 7x7, partner max 10 µM)	SNU-398 (Hepatocellular Carcinoma)	0.472

What does the data say about its combination Emax? Entry: COc1nnc2ccc(N3CCC(c4ccc(OCCN5CCN(C)C(=O)[C@H]5C)cc4)CC3)nn12 [AZD5153] + Cc1c2c(nn1C)CSCc1cc(n(C)n1)CSc1cc(c3ccccc3c1)OCCCc1c(C(=O)O)n(C)c3c-2c(Cl)ccc13 [AZD5991] (first compound max 1 µM, 7x7, partner max 1 µM)
1

====

System: PC-3 (Prostate Carcinoma)
Assay: combination Emax (second highest fraction inhibited in the dose matrix, 72 h); higher = more inhibition; extreme values may be limits of the assay
Measured property: combination Emax
Provide a numeric answer; units are not to be included.

The cases that follow already have their combination Emax on record.
Compound	Measured property	Readout value
COc1cccc(OCCCN)c1-c1cc(Nc2cnc(C#N)cn2)n[nH]1 [Prexasertib] + CN(C)CCCOc1ccc(-c2ccc3ncc4c(c3c2)n(C2CCOCC2)c(=O)n4C)cn1 [AZD0156] (first compound max 1 µM, 7x7, partner max 1 µM)	combination Emax	0.272
Cn1cnc2c(F)c(Nc3ccc(Br)cc3Cl)c(C(=O)NOCCO)cc21 [Selumetinib] + CC(C)n1c(=O)n(C)c2cnc3cc(F)c(-c4ccc(OCCCN5CCCCC5)nc4)cc3c21 [AZD1390] (first compound max 10 µM, 7x7, partner max 0.3 µM)	combination Emax	0.0591
Cn1cnc2c(F)c(Nc3ccc(Br)cc3Cl)c(C(=O)NOCCO)cc21 [Selumetinib] + C[C@@H]1COCCN1C2=NC(=NC(=C2)C3(CC3)[S@](=N)(=O)C)C4=C5C=CNC5=NC=C4 [AZD6738] (first compound max 10 µM, 7x7, partner max 10 µM)	combination Emax	0.39
NC1(C(=O)N[C@@H](CCO)c2ccc(Cl)cc2)CCN(c2ncnc3[nH]ccc23)CC1 [Capivasertib] + C[C@@H]1COCCN1C2=NC(=NC(=C2)C3(CC3)[S@](=N)(=O)C)C4=C5C=CNC5=NC=C4 [AZD6738] (first compound max 10 µM, 7x7, partner max 10 µM)	combination Emax	0.593
COc1cccc(OCCCN)c1-c1cc(Nc2cnc(C#N)cn2)n[nH]1 [Prexasertib] + C[C@@H]1COCCN1C2=NC(=NC(=C2)C3(CC3)[S@](=N)(=O)C)C4=C5C=CNC5=NC=C4 [AZD6738] (first compound max 1 µM, 7x7, partner max 10 µM)	combination Emax	0.431

Proceeding to the next compound to report its combination Emax.
Quick one: combination Emax for Cn1cnc2c(F)c(Nc3ccc(Br)cc3Cl)c(C(=O)NOCCO)cc21 [Selumetinib] + CCN(CCO)CCCOc1ccc2c(Nc3cc(CC(=O)Nc4cccc(F)c4)[nH]n3)ncnc2c1 [AZD2811] (first compound max 10 µM, 7x7, partner max 1 µM) ?
0.141

====

System: DMS-114 (Small Cell Lung Carcinoma)
Experiment: combination Emax (second highest fraction inhibited in the dose matrix, 72 h); higher = more inhibition; extreme values may be limits of the assay
Records here are stratified by combination Emax; strata: group 1 (below 0.4), group 2 (0.4 to below 0.5), group 3 (0.5 or more)

See these solved cases before continuing.
Molecule	Study target	Cat
C[C@@H](Oc1cc(-c2cnn(C3CCNCC3)c2)cnc1N)c1c(Cl)ccc(F)c1Cl [Crizotinib] + CC1=C(C(=CC=C1)Cl)NC(=O)C2=CN=C(S2)NC3=CC(=NC(=N3)C)N4CCN(CC4)CCO [Dasatinib] (first compound max 10 µM, 7x7, partner max 2 µM)	DMS-114 (Small Cell Lung Carcinoma)	group 3
CC1(C)CCC(CN2CCN(c3ccc(C(=O)NS(=O)(=O)c4ccc(NCC5CCOCC5)c([N+](=O)[O-])c4)c(Oc4cnc5[nH]ccc5c4)c3)CC2)=C(c2ccc(Cl)cc2)C1 [Venetoclax] + Cn1cnc2c(F)c(Nc3ccc(Br)cc3Cl)c(C(=O)NOCCO)cc21 [Selumetinib] (first compound max 1 µM, 7x7, partner max 3 µM)	DMS-114 (Small Cell Lung Carcinoma)	group 1
Cc1c2c(nn1C)CSCc1cc(n(C)n1)CSc1cc(c3ccccc3c1)OCCCc1c(C(=O)O)n(C)c3c-2c(Cl)ccc13 [AZD5991] + C=CCn1c(=O)c2cnc(Nc3ccc(N4CCN(C)CC4)cc3)nc2n1-c1cccc(C(C)(C)O)n1 [AZD1775] (first compound max 1 µM, partner max 1 µM)	DMS-114 (Small Cell Lung Carcinoma)	group 3
Cc1nc(-c2cn3c(n2)-c2ccc(-c4cnn(C(C)(C)C(N)=O)c4)cc2OCC3)n(C(C)C)n1 [Taselisib] + O=C(Nc1ccc2[nH]nc(-c3ccncc3)c2c1)[C@@H]1CCN(CC(=O)N2CCN(c3ccc(-c4ncccn4)cc3)CC2)C1 [SCH772984] (first compound max 10 µM, 7x7, partner max 5 µM)	DMS-114 (Small Cell Lung Carcinoma)	group 3

Band assignment needed for CN(CCO)CC[C@H](CSc1ccccc1)Nc1ccc(S(=O)(=O)NC(=O)c2ccc(N3CCC([C@@H](O)c4ccccc4-c4ccc(Cl)cc4)CC3)cc2)cc1S(=O)(=O)C(F)(F)F [AZD4320] + C[C@@H](Nc1cc(F)cc(F)c1)c1cc(C(=O)N(C)C)cc2c(=O)cc(N3CCOCC3)oc12 [AZD8186] (first compound max 1 µM, 7x7, partner max 3 µM) please.
group 1

Query CN(C)CCCOc1ccc(-c2ccc3ncc4c(c3c2)n(C2CCOCC2)c(=O)n4C)cn1 [AZD0156] + O=C(c1cc(Cc2n[nH]c(=O)c3ccccc23)ccc1F)N1CCN(C(=O)C2CC2)CC1 [Olaparib] (first compound max 3 µM, partner max 3 µM) next
group 2

Also CC1(C)CCC(CN2CCN(c3ccc(C(=O)NS(=O)(=O)c4ccc(NCC5CCOCC5)c([N+](=O)[O-])c4)c(Oc4cnc5[nH]ccc5c4)c3)CC2)=C(c2ccc(Cl)cc2)C1 [Venetoclax] + C[C@@H](Nc1cc(F)cc(F)c1)c1cc(C(=O)N(C)C)cc2c(=O)cc(N3CCOCC3)oc12 [AZD8186] (first compound max 1 µM, 7x7, partner max 3 µM) , if possible.
group 1

Same read-out for C[C@@H](Oc1cc(-c2cnn(C3CCNCC3)c2)cnc1N)c1c(Cl)ccc(F)c1Cl [Crizotinib] + Cn1cnc2c(F)c(Nc3ccc(Br)cc3Cl)c(C(=O)NOCCO)cc21 [Selumetinib] (first compound max 10 µM, 7x7, partner max 10 µM) ?
group 3

====

In this section, each of the molecules is paired with its reported combination Emax.
Tested on: NCI-H661 (Non-Small Cell Lung Carcinoma)
Assay: combination Emax (second highest fraction inhibited in the dose matrix, 72 h); higher = more inhibition; extreme values may be limits of the assay
The reply should be a number, written without any unit.

Molecule	combination Emax
C[C@@H](c1ccc2nccn2c1)n1nnc2ncc(-c3cnn(C)c3)nc21 [Savolitinib] + CN(CC[C@H](CSC1=CC=CC=C1)NC2=C(C=C(C=C2)S(=O)(=O)NC(=O)C3=CC=C(C=C3)N4CCC(CC4)[C@H](C5=CC=CC=C5C6=CC=C(C=C6)Cl)O)S(=O)(=O)C(F)(F)F)CCO [AZD4320] (first compound max 1 µM, 7x7, partner max 1 µM)	0.189

From here, focus on the item given below.
Give NCI-H661 (Non-Small Cell Lung Carcinoma) combination Emax for CN(C)CCCOc1ccc(-c2ccc3ncc4c(c3c2)n(C2CCOCC2)c(=O)n4C)cn1 [AZD0156] + O=C(c1cc(Cc2n[nH]c(=O)c3ccccc23)ccc1F)N1CCN(C(=O)C2CC2)CC1 [Olaparib] (first compound max 3 µM, partner max 3 µM)
0.217

====

Tested on: NCI-H2731 (Mesothelioma)
Experiment: combination Emax (second highest fraction inhibited in the dose matrix, 72 h); higher = more inhibition; extreme values may be limits of the assay
Measured property: combination Emax
Enter a number only.

Compound	combination Emax
Cc1cc2ncnn2cc1Nc1ncc2c(n1)n(C1CCOCC1)c(=O)n2C [AZD7648] + C[C@@H]1COCCN1C2=NC(=NC(=C2)C3(CC3)[S@](=N)(=O)C)C4=C5C=CNC5=NC=C4 [AZD6738] (first compound max 10 µM, 7x7, partner max 10 µM)	0.381
CN(CCO)CC[C@H](CSc1ccccc1)Nc1ccc(S(=O)(=O)NC(=O)c2ccc(N3CCC([C@@H](O)c4ccccc4-c4ccc(Cl)cc4)CC3)cc2)cc1S(=O)(=O)C(F)(F)F [AZD4320] + C=CCn1c(=O)c2cnc(Nc3ccc(N4CCN(C)CC4)cc3)nc2n1-c1cccc(C(C)(C)O)n1 [AZD1775] (first compound max 1 µM, partner max 1 µM)	0.328

Please find the next compound below.
Look up combination Emax: Cc1cc2ncnn2cc1Nc1ncc2c(n1)n(C1CCOCC1)c(=O)n2C [AZD7648] + COc1cc([C@@H]2c3cc4c(cc3[C@@H](O[C@@H]3O[C@@H]5CO[C@@H](C)O[C@H]5[C@H](O)[C@H]3O)[C@H]3COC(=O)[C@H]23)OCO4)cc(OC)c1O [Etoposide] (first compound max 10 µM, 7x7, partner max 10 µM)
0.542
